All values here come from ChEMBL document CHEMBL1201862.

Test system: SF-295
experimental protocol: NCI tumour cell line growth inhibition, 48 h
Calls of active or inactive are those of the source. Rule as the data show it: active = GI50 up to about 1.1 µM and inactive = higher.
measured metric: GI50

Answered cases to consult:
- compound: "COC(=O)C1Cc2c([nH]c3ccccc23)-c2[nH]c3ccccc3c2CC(NC(C)=O)C(=O)NCC(=O)N1 (stereo not given)"
  study target: "SF-295"
  GI50: "> 100 µM (inactive)"
- compound: "COC(=O)[C@]12CSC[C@H]1C[C@H](c1cccc3ccccc13)N2"
  study target: "SF-295"
  GI50: "> 100 µM (inactive)"
- compound: "CCCN1C(=O)CC(C)N(Cc2ccccc2Cl)C1=S (stereo not given)"
  study target: "SF-295"
  GI50: "31.9 µM (inactive)"
- compound: "c1ccc2[nH]c(C3CCCCO3)nc2c1 (stereo not given)"
  study target: "SF-295"
  GI50: "> 100 µM (inactive)"

# next compound below
// sample `O=C(O)c1c2c(c(O)c3c1CN(C1CCCCC1)CO3)OCN(C1CCCCC1)C2` , its GI50 was 92.7 µM (inactive)

###

Test system: SNB-19
experimental protocol: NCI tumour cell line growth inhibition, 48 h
Calls of active or inactive are those of the source. No stated cut-off is given here; in the data, active = GI50 up to about 1.1 µM and inactive = higher.
measured metric: GI50

- molecule: "CCOP(=O)(OCC)/C(C#N)=C/c1ccc(-c2ccc(F)cc2F)o1"
  study target: "SNB-19"
  value observed: "16.9 µM (inactive)"
- molecule: "S=C1CC(c2ccccc2)Sc2ccc(Cl)cc2N1 (stereo not given)"
  study target: "SNB-19"
  value observed: "34 µM (inactive)"
- molecule: "CCOC(=O)C1Cc2ccc3c4c(ccc(c24)C1)CC(C(=O)OCC)C3"
  study target: "SNB-19"
  value observed: "> 100 µM (inactive)"

Test item `Cc1cc(C)c(C[C@H]2COC(=O)[C@]2(O)Cc2c(C)cc(C)cc2C)c(C)c1` ; SNB-19; reported GI50 was 21.6 µM (inactive)

Recorded GI50 for `C(=N\N=C1NCCCCN1)/c1ccc2ccccc2c1` on SNB-19 was 61.5 µM (inactive)

The observed GI50 for `COC(=O)[C@](C)(Cc1ccccc1)NC(=O)[C@@H](C)N1[C@@H](c2ccccc2)COC1(C)C` when tested with SNB-19 stands at > 100 µM (inactive)

Value (GI50, SNB-19) for record CCCC(=O)NC(Nc1ccc(S(=O)(=O)Nc2cc(C)on2)cc1)(C(=O)OCC)C(F)(F)F (stereo not given) = > 100 µM (inactive)

Known value: SNB-19 GI50 of the molecule `COc1ccc(OC)c(/C=C/C(=O)C(C)(C)C)c1` equals 17.2 µM (inactive)

The molecule CCCCCCCCCCCCCC(=O)OC(/C=C/C(C)C)C(O)C(O)C(OC)C(=O)NC1CCCCN(C)C1=O (stereo not given) , when measured on SNB-19, yielded GI50 of 1.45 µM (inactive)

The measured GI50 that CCOc1ccc(NCC2CC/C(=C\c3ccc(Cl)cc3)C2=O)cc1 (stereo not given) showed for SNB-19 is 49.1 µM (inactive)

###

Test system: COLO 205
experimental protocol: NCI tumour cell line growth inhibition, 48 h
Active and inactive are the calls of the source. Rule as the data show it: active = GI50 up to about 1.1 µM and inactive = higher.
measured metric: GI50

- compound: "N#C/C(=C\\c1ccc[nH]1)C(=O)c1ccccc1"
  GI50: "> 100 µM (inactive)"

Let us examine a further case.
get_value(item= `Cc1cc2c(nn1)-c1ccccc1C2=O` , readout=GI50) returns > 10 µM (inactive)

###

Measured GI50 by item
Tested on: CCRF-CEM
experimental protocol: NCI tumour cell line growth inhibition, 48 h
Where a name gives a salt, the structure may show the parent alone. Active and inactive are the calls of the source. No stated cut-off is given here; in the data, active = GI50 up to about 1.1 µM and inactive = higher.

- molecule: "CCOC(=O)C1(Cc2ccc3c(c2)CCC3)Cc2cc3c(cc2C1=O)CCC3 (stereo not given)"
  GI50: "11.9 µM (inactive)"
- molecule: "CCOC(=O)c1ccc(N2C(=O)/C(=C/c3ccc(N(CCC#N)CCC#N)cc3)N=C2c2cc([N+](=O)[O-])ccc2Cl)cc1"
  GI50: "> 100 µM (inactive)"
- molecule: "CCOC(=O)c1c(CN2CCNCC2)nc2ccccc2c1-c1ccccc1"
  GI50: "12.7 µM (inactive)"
- molecule: "Nc1nc2ccc(OCC(O)CN3CCCCC3)cc2[n+]([O-])n1 (stereo not given)"
  GI50: "> 100 µM (inactive)"
- molecule: "NCCSSCCN [CYSTAMINE HYDROCHLORIDE]"
  GI50: "56.1 µM (inactive)"
- molecule: "O=C1NC(=S)NC1C(Cc1ccccc1)c1ccco1 (stereo not given)"
  GI50: "68.2 µM (inactive)"

Turning to the following molecule.
Reported GI50 (CCRF-CEM) for entry `CCOC(=O)N/N=C(\CC)OCC` is > 100 µM (inactive)

###

Test system: K562
experimental protocol: NCI tumour cell line growth inhibition, 48 h
Calls of active or inactive are those of the source. Rule as the data show it: active = GI50 up to about 1.1 µM and inactive = higher.
Hi! Could you answer with just one of these? active, inactive

- compound: "Clc1ccc2c(c1)C1C(CO2)C(c2ccccc2)=NN1c1ccccc1 (stereo unspecified)"
  assigned class: "inactive"
- compound: "CCOP(=O)(OCC)C(C)(C)OC(=O)NC(F)(F)F"
  assigned class: "inactive"
- compound: "Cc1cc(O)c2c(c1)C(C1OC(CO)C(O)C(O)C1O)c1cc(O)cc(O)c1C2=O (stereo unspecified)"
  assigned class: "inactive"
- compound: "CCCN(C(=O)c1c(Cl)nnc(Cl)c1C(=O)c1cc(Cl)nnc1Cl)c1cc(Cl)nnc1Cl"
  assigned class: "inactive"
- compound: "COc1cc(C(O)(CC#N)c2cc3c(cc2Br)OCO3)cc(OC)c1OC (stereo unspecified)"
  assigned class: "inactive"
- compound: "O=S(=O)(c1cc(Cl)ccc1Cl)N1CCN(c2cccc(Cl)c2)CC1"
  assigned class: "inactive"
- compound: "CNC(=O)c1ccccc1[S+]1c2cccc3cccc(c23)C(=O)N1C (stereo unspecified)"
  assigned class: "inactive"
- compound: "COc1ccc(-c2c3c(nc4nc(SCC(=O)c5ccc(Br)cc5)nc(N)c24)CCCC3)cc1OC"
  assigned class: "inactive"

Recorded call for CCOc1ccc(NCC2CC/C(=C\c3ccc(Cl)cc3)C2=O)cc1 (stereo unspecified) ?
inactive

Please let me know the test result on file for `CNNC1=NS(=O)(=O)c2cc(C)c(Cl)cc2S1` .
inactive

I'd appreciate the recorded outcome for O=C(CC1C(=O)Nc2ccccc2[S+]1[O-])Nc1cccc(Cl)c1 (stereo unspecified) from this test.
inactive

Record request — test call for `CCOC(=O)C(=CNc1ccc(F)c(F)c1)C(=O)OCC`
inactive

Hey, what did the test say about COC1CC(OC2CCC3(C)C(CCC45CCC(C6=CC(=O)OC6)C(C)(CCC43)C5=O)C2)OC(C)C1O (stereo unspecified) ?
inactive

For `O=C(c1cccs1)N(C(=S)OCc1ccccn1)c1ccccc1` , what call appears in the results of this test?
inactive

State the result this test recorded for CC1(C)CC2(C)ON=C(c3ccccc3)N2c2ccccc2N1 (stereo unspecified) .
inactive

Can you look up the reported call for `Cc1ccc(/N=C2/C(c3ccccc3)=C(SC3=C(c4ccccc4)/C(=N/c4ccc(C)cc4)c4ccccc43)c3ccccc32)cc1` for me?
inactive

Field: outcome | Entry: `O=C1c2cccc3cccc(c23)C(=O)N1CCCNCCCCNCCCN1C(=O)c2cccc3cccc(c23)C1=O`
active

Given COc1ccc(CN(O)C2C(CO)OC(n3cc(I)c(=O)[nH]c3=O)C2O)cc1 (stereo unspecified) , state the outcome it received in this test.
inactive

# fetch the recorded call for `CCOC(=O)/C(C#N)=C\c1ccc(N(CCC(=O)O)CCC(=O)O)c(I)c1` here
inactive

// outcome(item) with item = CCC1CC(C)=CCN1S(=O)(=O)c1ccc(C)cc1 (stereo unspecified)
inactive

How did this test come out for O=c1ccn(/C=C/C(O)C(O)CO)c(=O)[nH]1 (stereo unspecified) ?
inactive

###

System: NCI-H460
experimental protocol: NCI tumour cell line growth inhibition, 48 h
Active and inactive are the calls of the source. Rule as the data show it: active = GI50 up to about 1.1 µM and inactive = higher.
measured metric: GI50

// solved cases for GI50 follow
- compound: "Cc1ccc(OCCn2cc(Nc3ccccc3)c(=O)[nH]c2=O)cc1"
  GI50: "> 100 µM (inactive)"
- compound: "COc1cc2oc(-c3ccc(O)cc3)cc(=O)c2c(OC)c1OC"
  GI50: "> 100 µM (inactive)"
- compound: "COc1cc2cc[n+]3c(C)c4cc(OC)c(OC)cc4c([O-])c3c2cc1OC"
  GI50: "> 100 µM (inactive)"
- compound: "O=S1(=O)Cc2ccc3c4c2-c2c(ccc5ccc(c-4c25)CS(=O)(=O)C3)C1"
  GI50: "63.2 µM (inactive)"
- compound: "CCOc1ccc(/C=C2\\N=C(c3ccc([N+](=O)[O-])cc3)OC2=O)cc1"
  GI50: "> 100 µM (inactive)"

Sample O=C(Nc1ccc(Cl)cc1)C1C(=O)C(=O)N(c2ccc(Cl)cc2)C1=O (stereo unspecified) ; GI50 observed: > 100 µM (inactive)

Please fill in: GI50 reported for `COc1cc2c(c(OC)c1OC)C(=O)[C@H](Br)[C@H]2NC(=O)NCCCl` = 80.4 µM (inactive)

GET /value?item= O=[N+]([O-])c1ccc(N2N=C(c3ccc4ccccc4c3O)CC2c2ccc(Cl)cc2Cl)c([N+](=O)[O-])c1 (stereo unspecified) &field=GI50 returns 51.1 µM (inactive)

GI50 for `c1cc(CSP234N5CCN2CCN3CCN4CC5)cc(CSP234N5CCN2CCN3CCN4CC5)c1` is 26.6 µM (inactive)

Query `O=C1C(Cl)=C(Cl)C(=O)C2=C1C1c3ccccc3C2c2ccccc21` yields GI50 of 32.5 µM (inactive)

Value of measured GI50 for the entry `Cc1c(O)c(=O)ccn1CCc1ccc(O)cc1` : 17.1 µM (inactive)

GI50 reading for CCOC(=O)C1(Cc2ccc3c(c2)CCC3)Cc2cc3c(cc2C1=O)CCC3 (stereo unspecified) : 41.9 µM (inactive)
